Biological target: mTOR (Homo sapiens)
Test: in vitro effect of amino acids on mTOR
Format: biochemical
Details: in vitro
Observed property: effect on mTOR (inhibitory or activating)

{"Molecule smiles": "CC[C@H](C)[C@H](N)C(=O)O", "Study system": "mTOR (Homo sapiens)", "Result": "mTOR activating effect"}
{"Molecule smiles": "CC(C)C[C@H](N)C(=O)O", "Study system": "mTOR (Homo sapiens)", "Result": "mTOR activating effect"}
{"Molecule smiles": "CC(C)[C@H](N)C(=O)O", "Study system": "mTOR (Homo sapiens)", "Result": "mTOR activating effect"}
